# Tested on: NCI/ADR-RES ovarian
# assay: NCI-60 one-dose screen, 48 h (100 = growth as untreated, 0 = no growth, -100 = all killed)
# experimental parameters: 10 µM
Compounds without any hit were thinned out: in the full panel of roughly 83,000, 20% have a hit. Calls of active or inactive are those of the source. Rule for the calls: active = growth percent below 10; inactive = the rest.
reported endpoint: growth

Reference set, count: 3
compound	system tested	meas value
COc1cccc(N=Nc2cccc(OC)c2)c1	NCI/ADR-RES ovarian	105% (inactive)
COc1ccc(/C(C#N)=C/c2ccccc2OC)cc1	NCI/ADR-RES ovarian	-0.0917% (active)
Cc1ccc(Cl)cc1NC(=O)CCl	NCI/ADR-RES ovarian	102% (inactive)

## Input Returns the measured growth for the input compound. Input: `CC(C)(O)CCl`
## Output 108% (inactive)

## Input Returns the measured growth for the input compound. Input: `CCCCCCCCCCCCCCCCCC[n+]1ccc2c(C)c3c(c(C)c2c1)c1cc(O)ccc1n3CC`
## Output 72.3% (inactive)

## Input Returns the measured growth for the input compound. Input: `COc1cc(-c2nn(-c3cccc(NC(=O)CCNc4ccc(N5CCOCC5)cc4)c3)cc2-c2ccncc2)ccc1Cl`
## Output 36% (inactive)

## Input Returns the measured growth for the input compound. Input: Cc1ccc(NCCN(C)CC(C)O)c2c(=O)c3ccccc3sc12 (configuration not stated)
## Output 44.7% (inactive)

## Input Returns the measured growth for the input compound. Input: `CN(C)CCOc1cccc(NC2=C(Cl)C(=O)C(Nc3cccc(OCCN(C)C)c3)=C(Cl)C2=O)c1`
## Output 57.2% (inactive)

## Input Returns the measured growth for the input compound. Input: CCN(CC)CCCC(Nc1c2ccc(Cl)cc2nc2ccc(OC)cc12)c1ccc(F)cc1 (configuration not stated)
## Output 28.9% (inactive)

## Input Returns the measured growth for the input compound. Input: CCCCCOC(=O)Nc1nc(=O)n(C2O[C@H](C)[C@@H](O)[C@H]2O)cc1F (some centres not stated)
## Output 96.4% (inactive)

## Input Returns the measured growth for the input compound. Input: NC(CSC(c1ccccc1)(c1ccccc1)c1cccc2ccccc12)C(=O)O (configuration not stated)
## Output 97.6% (inactive)

## Input Returns the measured growth for the input compound. Input: COc1cc(C2CC(c3ccccc3)=NN2C(C)=O)cc(OC)c1OC (configuration not stated)
## Output 11.1% (inactive)

## Input Returns the measured growth for the input compound. Input: `N#CCc1csc(Cc2ccccc2)n1`
## Output 97.3% (inactive)

====

# Tested on: MCF7 breast
# assay: NCI-60 one-dose screen, 48 h
# experimental parameters: 10 µM
This is part of a sample that, as a whole, favours compounds with a hit. Of some 83,000 tested, about 20% had one in any assay. Calls of active or inactive are those of the source. How the source made its calls: active means growth percent below 10; inactive means the rest.
Use one of these outcomes when replying: active, inactive

Previously resolved entries follow.
compound	qualitative label
CC(C)N(CCOc1ccc(-c2nc3sccn3c2-c2ccnc(S(C)(=O)=O)n2)cc1)C(C)C	inactive
COc1cc2cc(Oc3ccc(NC(=O)Nc4cccc(C(F)(F)F)c4)cc3)c(C)nc2cc1OC	active
Cc1ccc(NC(=O)N2CCCCC2)cc1[N+](=O)[O-]	inactive
CC(C)(C)c1ccc(S(=O)(=O)N[C@H]2CC[C@H]3[C@@H]4CCc5cc(OS(=O)(=O)O)ccc5[C@H]4CC[C@]23C)cc1	inactive
O=C(CCCCCCC(=O)Nc1ccccc1)NO	active

Now take the following compound into account.
## Input How did this test come out for `CCCCCCCCCCCC[n+]1c(C)cc(N)c2ccccc21` ?
## Output active

====

Each entry below carries its recorded growth.
# Test system: COLO 205 colon
# assay: NCI-60 one-dose screen, 48 h (100 = growth as untreated, 0 = no growth, -100 = all killed)
# experimental parameters: 10 µM
This is part of a sample that, as a whole, favours compounds with a hit. Of some 83,000 tested, about 20% had one in any assay. The source made the active and inactive calls. How the source made its calls: active means growth percent below 10; inactive means the rest.

compound	growth
CC(=O)OC1C=CC(OC(C)=O)O1 (stereo not given)	97.1% (inactive)
CCN(CCCNc1cc2c(c(N)c1S(=O)(=O)O)C(=O)c1ccccc1C2=O)c1ccccc1	109% (inactive)
CN(C)CCOc1cccc(-c2nc3sccn3c2-c2ccnc(S(C)(=O)=O)n2)c1	106% (inactive)
COc1ccc(-c2nn(-c3cccc(Cl)c3)cc2-c2c(C#N)c(=O)n3[nH]c(-c4ccc(C)cc4)nc3c2C#N)cc1	15.9% (inactive)
CCCCC(CC)CN=C(N)NC(N)=NCCCCCCN=C(N)NC(N)=NCC(CC)CCCC (stereo not given)	-79.8% (active)

## Input Returns the measured growth for the input compound. Input: `C#CCOc1c(OC)cc(C(=O)/C(C)=C/c2cccc(N=[N+]=[N-])c2)cc1OC`
## Output -31.8% (active)

## Input Returns the measured growth for the input compound. Input: `COc1cc(-c2csc(NC(=O)Nc3ccc(Cl)c(C(F)(F)F)c3)n2)cc(OC)c1OC`
## Output -58.1% (active)

## Input Returns the measured growth for the input compound. Input: `C/C=C/CSC(C)(C)C(=O)NC`
## Output 119% (inactive)

## Input Returns the measured growth for the input compound. Input: `CCCCCCCCCCCCCCCCCC[n+]1ccc2c(C)c3c(c(C)c2c1)c1cc(O)ccc1n3CC`
## Output -46.6% (active)

## Input Returns the measured growth for the input compound. Input: O=c1[nH]c(=O)n(C2C[C@H](O)[C@@H](CO)O2)cc1C(F)(F)F (stereo not given in full)
## Output 113% (inactive)

====

Each entry below carries its recorded growth.
# Test system: COLO 205 colon
# assay: NCI-60 one-dose screen, 48 h (100 = growth as untreated, 0 = no growth, -100 = all killed)
# experimental parameters: 10 µM
This is part of a sample that, as a whole, favours compounds with a hit. Of some 83,000 tested, about 20% had one in any assay. Activity calls are given as the source filed them. The calls were made as follows: active = growth percent below 10; inactive = the rest.

compound	growth
CC(C)(C)c1ccc(S(=O)(=O)N[C@H]2CC[C@H]3[C@@H]4CCc5cc(OS(=O)(=O)O)ccc5[C@H]4CC[C@]23C)cc1	13.8% (inactive)
N#Cc1c(N)nc(-c2cc(F)cc(C(F)(F)F)c2)nc1-c1ccccc1F	24.7% (inactive)
COc1cc2cc(Oc3ccc(NC(=O)c4cc(C(F)(F)F)cc(C(F)(F)F)c4)cc3)c(C)nc2cc1OC	51.7% (inactive)

## Input Returns the measured growth for the input compound. Input: `COc1cc2c(cc1NC(=O)C(F)(F)F)-c1ccc(NC(=O)C(F)(F)F)cc1C2`
## Output 112% (inactive)

## Input Returns the measured growth for the input compound. Input: `Cc1nn(-c2ccc(-c3ccc(OC(F)(F)F)cc3)cc2)c2nc(Cc3ccccc3)nc(N)c12`
## Output 65.2% (inactive)

## Input Returns the measured growth for the input compound. Input: `O=C1c2ccccc2C(=O)c2c1ccc(C(Br)Br)c2[N+](=O)[O-]`
## Output 69.6% (inactive)

## Input Returns the measured growth for the input compound. Input: O=C1OC(C(Cl)(Cl)Cl)OC1C(Cl)(Cl)Cl (configuration not stated)
## Output 107% (inactive)

## Input Returns the measured growth for the input compound. Input: `Nc1nccc(OCCO)n1`
## Output 110% (inactive)

====

Each entry below carries its recorded growth.
# System: SK-MEL-5 melanoma
# assay: NCI-60 one-dose screen, 48 h (100 = growth as untreated, 0 = no growth, -100 = all killed)
# experimental parameters: 10 µM
The panel holds about 83,000 compounds, 20% with a hit somewhere; the sample as a whole holds those more often. The source made the active and inactive calls. How the source made its calls: active means growth percent below 10; inactive means the rest.

molecule	growth
COc1ccc(NC(=O)C2CC3C=CC2C3)c([N+](=O)[O-])c1 (stereo not given)	96% (inactive)

## Input Returns the measured growth for the input molecule. Input: `N#Cc1ccc(C(=O)CSc2nccc(Nc3ccc(C(=O)O)cc3)n2)cc1`
## Output 99.1% (inactive)

## Input Returns the measured growth for the input molecule. Input: Cc1ccc(C(=O)C2C(=O)C3CCC2C3)cc1 (stereo not given)
## Output 102% (inactive)

## Input Returns the measured growth for the input molecule. Input: O=C1OC(C(Cl)(Cl)Cl)OC1C(Cl)(Cl)Cl (stereo not given)
## Output 107% (inactive)

## Input Returns the measured growth for the input molecule. Input: `CCOc1ccccc1/C=N\N=C(\N)N/N=C/c1ccccc1OCC`
## Output 17.8% (inactive)

====

# System: HCT-15 colon
# assay: NCI-60 one-dose screen, 48 h
# experimental parameters: 10 µM
The panel holds about 83,000 compounds, 20% with a hit somewhere; the sample as a whole holds those more often. Active and inactive are the calls of the source. Rule for the calls: active = growth percent below 10; inactive = the rest.
Use one of these outcomes when replying: active, inactive

Previously resolved entries follow.
compound	qualitative label
CCn1cc(CNc2ccc(C(=O)Nc3ccc4ccccc4c3)cc2)c(C)n1	inactive
COc1ccc(C(=O)CSc2nc(-c3cc(OC)ccc3OC)cc(-c3ccc(OC)cc3)c2C#N)cc1	inactive
CC(C)(C)c1ccc(S(=O)(=O)N[C@H]2CC[C@H]3[C@@H]4CCc5cc(O)ccc5[C@H]4CC[C@]23C)cc1	inactive
Cc1ccc(S(=O)(=O)N/N=C2\CCCc3ccccc32)cc1	inactive
Nc1nc(-c2cccnc2)nc2c1sc(=S)n2-c1ccccc1	inactive

## Input How did this test come out for `COc1cc2c3c(n(C4CCNCC4)c(=O)c2cc1OC)-c1cc2c(cc1C3=O)OCO2` ?
## Output active

## Input How did this test come out for `COc1ccc(CCN2CCC(Nc3nc4ccccc4n3Cc3ccc(F)cc3)CC2)cc1` ?
## Output active

## Input How did this test come out for `O=C(Nc1ccc(NS(=O)(=O)c2ccc(F)cc2)cc1)C12CC3CC(CC(C3)C1)C2` ?
## Output inactive

These measurements were taken from PubChem BioAssay (NCI).
